Target: T1, Fusion protein of extracellular domain of human TIGIT and mouse IgG2a Fc fragment (human TIGIT ECD-mFc) (human)
T1 construct: The entry includes the signal peptide (limits not recoverable) and the mouse IgG2a Fc
T1 chain: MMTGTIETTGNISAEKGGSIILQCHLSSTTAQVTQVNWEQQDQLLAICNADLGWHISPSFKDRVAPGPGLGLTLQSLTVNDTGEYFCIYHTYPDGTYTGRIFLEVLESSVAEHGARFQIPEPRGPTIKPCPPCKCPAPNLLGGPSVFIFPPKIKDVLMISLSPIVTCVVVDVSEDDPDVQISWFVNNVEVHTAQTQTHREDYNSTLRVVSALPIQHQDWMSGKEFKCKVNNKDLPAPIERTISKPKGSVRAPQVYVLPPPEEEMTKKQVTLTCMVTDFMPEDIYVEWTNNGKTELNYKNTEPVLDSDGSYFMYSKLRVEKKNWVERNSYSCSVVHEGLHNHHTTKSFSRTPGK
Experiment: ELISA, human TIGIT ECD-mFc
Measured Property: EC50 (nM)
Give bare numbers, in nM.

Example results:
TIGIT-070-H3L1 (antibody, V domains shown, Humanized anti-TIGIT antibody) VH: EVQLVQSGAEVKKPGASVKVSCKASGYTFTNYYMHWVRQAPGQGLEWMGRIDPDSGGSKYNEKFKSRVTITVDKLSSTAYMELSSLRSEDTAVYYCAREGHYGFYSDYWGQGTTVTVSS VL: DIQMTQSPSSLSASVGDRVTITCRVSENIYSYLAWYQQKPGKSPKLLIYNAKTLAEGVPSRFSGSGSGTDFTLTISSLQPEDFATYYCQHHYGNPLTFGPGTKVDIK
0.0131
TIGIT-070-H2L2 (antibody, V domains shown, Humanized anti-TIGIT antibody) VH: EVQLVQSGAEVKKPGASVKVSCKASGYTFTNYYMHWVRQAPGQRLEWMGRIDPDSGGSKYNEKFKSRVTITVDKLSSTAYMELSSLRSEDTAVYYCAREGHYGFYSDYWGQGTTVTVSS VL: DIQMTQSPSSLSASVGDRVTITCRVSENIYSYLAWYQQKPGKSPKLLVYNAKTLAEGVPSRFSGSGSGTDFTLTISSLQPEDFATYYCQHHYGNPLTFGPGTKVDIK
0.0125
TIGIT-002-H3L2 (antibody, V domains shown, Humanized anti-TIGIT antibody) VH: EVQLQESGPGLVKPSETLSLTCAVSGYSITSDSWNWIRQPPGKKLEWMGYISYSGNTYYNPSLKSRITISRDTSKNQFSLKLSSVTAADTAVYYCARLDFSNYGGAVDYWGQGTTVTVSS VL: DIVMTQTPLSLSVTPGQPASISCKASQNVRTAVAWYQQKPGQSPQLMIYSASYRYTGVPDRFSGSGSGTDFTLKISRVEAEDVGVYYCQQYYTTPWTFGGGTKVEIK
0.017
TIGIT-006-H3L1 (antibody, V domains shown, Humanized anti-TIGIT antibody) VH: EVQLQESGPGLVKPSETLSLTCAVSGYSMTSDYWNWIRQPPGKKLEWIGYISYSGRTYYNPSLKSRVTISRDTSKNQFSLKLSSVTAADTAVYYCARGDYSNYGGAMYDWGQGTTVTVSS VL: DIVMTQTPLSLSVTPGQPASISCRASQGVSTTIAWYLQKPGQSPQLLIYSASYRYTGVPDRFSGSGSGTDFTLKISRVEAEDVGVYYCQQYYSSPFTFGGGTKVEIK
0.0096
TIGIT-002-H2L2 (antibody, V domains shown, Humanized anti-TIGIT antibody) VH: EVQLQESGPGLVKPSETLSLTCAVSGYSITSDSWNWIRQPPGKKLEWIGYISYSGNTYYNPSLKSRVTISRDTSKNQFSLKLSSVTAADTAVYYCARLDFSNYGGAVDYWGQGTTVTVSS VL: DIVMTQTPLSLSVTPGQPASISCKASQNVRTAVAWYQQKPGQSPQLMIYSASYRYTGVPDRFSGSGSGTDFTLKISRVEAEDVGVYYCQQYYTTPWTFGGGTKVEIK
0.0222

Each binder below has a reported value. Please supply its EC50.
1. TIGIT-CHI-070 (antibody, V domains shown, Human-mouse chimeric antibody) VH: QVQLQQPGTELVKPGASVKLSCRASGYTFTNYYMHWVKQRPGRGLEWIGRIDPDSGGSKYNEKFKSKATLTVDKLSSTAYMQLSSLTSEDSAVYYCAREGHYGFYSDYWGQGTTLTVSS VL: DIQMTQSPASLSASVGETVTITCRVSENIYSYLAWYQQKQGKSPQLLVYNAKTLAEGVPSRFSGSGSGTQFSLKINSLQPEDFGNYYCQHHYGNPLTFGAGTKLDLK
2. TIGIT-070-H3L2 (antibody, V domains shown, Humanized anti-TIGIT antibody) VH: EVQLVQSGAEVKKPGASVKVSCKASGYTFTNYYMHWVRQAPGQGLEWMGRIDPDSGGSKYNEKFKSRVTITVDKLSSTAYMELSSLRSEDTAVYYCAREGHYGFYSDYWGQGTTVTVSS VL: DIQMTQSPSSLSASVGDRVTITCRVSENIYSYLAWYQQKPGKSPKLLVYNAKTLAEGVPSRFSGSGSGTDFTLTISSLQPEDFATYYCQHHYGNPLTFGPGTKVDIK
3. TIGIT-005-H2L1b (antibody, V domains shown, Humanized anti-TIGIT antibody with NG-site mutation in VL) VH: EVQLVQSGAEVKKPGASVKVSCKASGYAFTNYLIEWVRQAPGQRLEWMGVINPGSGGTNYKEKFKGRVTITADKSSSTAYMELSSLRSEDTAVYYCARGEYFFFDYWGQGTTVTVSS VL: DIVMTQSPDSLAVSLGERATINCKASQHVSTGVAWYQHKPGQSPKLLIYSASYRYTGVPDRFSGSGSGTDFTLTISSLQAEDVAVYYCQQHYNTPHTFGGGTKVEIK
4. TIGIT-006-H3L2 (antibody, V domains shown, Humanized anti-TIGIT antibody) VH: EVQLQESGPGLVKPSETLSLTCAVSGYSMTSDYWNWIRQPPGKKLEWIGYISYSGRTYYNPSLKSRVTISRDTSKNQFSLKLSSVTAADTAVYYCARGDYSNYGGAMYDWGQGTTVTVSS VL: DIVMTQTPLSLSVTPGQPASISCRASQGVSTTIAWYQQKPGQSPKLLIYSASYRYTGVPDRFSGSGSGTDFTLKISRVEAEDVGVYYCQQYYSSPFTFGGGTKVEIK
5. TIGIT-CHI-002 (antibody, V domains shown, Human-mouse chimeric antibody) VH: EVQLQESGPGLAKPSQTLSLACSVTGYSITSDSWNWIRKFPGNKLEYMGYISYSGNTYYNPSLKSRISITRDTSKNQFYLQLNSVTTEDTATYYCARLDFSNYGGAVDYWGQGTSVTVSS VL: DIVMTQSHTFMSTSVGDRVSITCKASQNVRTAVAWYQQKPGQSPKLMIYSASYRYTGVPDRFTGSGSGTDFTFTISSVQAEDLAVYYCQQYYTTPWTFGGGAKLEIQ

Key:
0.0159
0.0143
0.0238
0.0099
0.0161
